For each of the compounds below, state its AC50.

Req: Please provide the recorded AC50 for C=C1c2cccc(O)c2C(=O)C2=C(O)[C@]3(O)C(=O)C(C(N)=O)=C(O)[C@@H](N(C)C)[C@@H]3[C@@H](O)[C@H]12 , tested on UniProt P21731.
Sequence (P21731 whole entry): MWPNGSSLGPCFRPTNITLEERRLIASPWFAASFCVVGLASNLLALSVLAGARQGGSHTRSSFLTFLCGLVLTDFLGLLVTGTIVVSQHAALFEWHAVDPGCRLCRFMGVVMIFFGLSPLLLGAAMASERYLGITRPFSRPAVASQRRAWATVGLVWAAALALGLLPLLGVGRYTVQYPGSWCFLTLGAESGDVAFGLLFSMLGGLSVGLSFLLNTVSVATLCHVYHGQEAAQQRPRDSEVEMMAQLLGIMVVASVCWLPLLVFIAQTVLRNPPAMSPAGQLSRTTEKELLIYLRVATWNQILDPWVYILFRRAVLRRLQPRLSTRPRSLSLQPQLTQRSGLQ
Resp: > 30 µM

Req: What is its AC50 for UniProt P21731? Entry: CC(C)[C@@H](C)/C=C/[C@@H](C)[C@H]1CC[C@H]2/C(=C/C=C3\C[C@@H](O)CC[C@@H]3C)CCC[C@]12C [DIHYDROTACHYSTEROL]
Resp: > 10 µM

Req: Write down the reported AC50 of Fc1ccc([C@@H]2CCNC[C@H]2COc2ccc3c(c2)OCO3)cc1 , test system: UniProt P21731.
Resp: > 30 µM

Req: Identify the measured AC50 of CCC[C@@H]1C[C@@H](C(=O)N[C@@H]([C@H]2O[C@H](SC)[C@H](O)[C@@H](O)[C@H]2O)[C@@H](C)O)N(C)C1 for UniProt P21731.
Resp: > 10 µM

Req: Can you look up AC50 on UniProt P21731 for COc1cc2[nH]c(C)c(CCN3CCN(c4ccccc4)CC3)c2cc1OC ?
Resp: > 30 µM

Req: Find the measured AC50: item Clc1ccc(CCC(Cn2ccnc2)Sc2c(Cl)cccc2Cl)cc1 (configuration not stated) , target or system UniProt P21731.
Resp: > 30 µM

Req: Query AC50 on UniProt P21731 for CC1=C(/C=C/C(C)=C/C=C/C(C)=C/CO)C(C)(C)CCC1
Resp: > 10 µM
